Where these numbers come from: patent US20230024302A1

target: PI3Kγ (p120γ) (Homo sapiens, UniProt P48736); construct: purchased Promega V1761; assay: Inhibition of PI3K kinase activity (ADP Glo), PI3Kγ; conditions: Table 1, p120γ, read-out: biochemical potency (PI3Kγ IC50)
pIC50: −log10 of the molar value.
measured-endpoint: pIC50

[
  {
    "compound": "COc1cncc(NC(=O)c2c(N)nn3ccc(-c4cc5c(c(OC(F)(F)F)c4)C(=O)N([C@@H](C)C4CC4)C5)nc23)c1 [Example 43]",
    "pIC50": "> 7.00"
  },
  {
    "compound": "C[C@@H](C1CC1)N1Cc2cc3cc(c2C1=O)OCCOCCNC(=O)c1c(N)nn2ccc-3nc12 [Example 71]",
    "pIC50": "> 7.00"
  },
  {
    "compound": "Cc1cc(-c2ccn3nc(N)c(C(=O)N[C@H]4C[C@H](CO)C4)c3n2)cc2c1C(=O)N([C@@H](C)C1CC1)C2 [Example 12]",
    "pIC50": "> 7.00"
  },
  {
    "compound": "Cc1cc(NC(=O)c2c(N)nn3ccc(-c4cc5c(c(NS(C)(=O)=O)c4)C(=O)N([C@@H](C)C4CC4)C5)nc23)ccn1 [Example 101]",
    "pIC50": "> 7.00"
  },
  {
    "compound": "C[C@@H](C1CC1)N1Cc2cc(-c3ccn4nc(N)c(C(=O)Nc5cnn(CC(F)(F)F)c5)c4n3)cc(NS(C)(=O)=O)c2C1=O [Example 106]",
    "pIC50": "> 7.00"
  }
]

Now examine the next entry.
Input line: Reported pIC50, compound Cc1cc(-c2ccn3nc(N)c(C(=O)Nc4cnn(CC(C)(C)O)c4)c3n2)cc2c1C(=O)N([C@@H](C)C1CC1)C2 [Example 17] : ____
Output line: > 7.00

###

molecular target: PI3Kγ (p120γ) (Homo sapiens, UniProt P48736); construct: purchased Promega V1761; assay: Inhibition of PI3K kinase activity (ADP Glo), PI3Kγ; conditions: Table 1, p120γ, read-out: biochemical potency (PI3Kγ IC50)
pIC50: −log10 of the molar value.
measured-endpoint: pIC50

Recorded results for 2 molecules are shown here.
[
  {
    "entry-smiles": "C[C@@H](C1CC1)N1Cc2cc(-c3ccn4nc(N)c(C(=O)N[C@]5(C)C[C@@H](O)C5)c4n3)cc(NS(C)(=O)=O)c2C1=O",
    "measured-endpoint": "pIC50",
    "assay-value": "> 7.00"
  },
  {
    "entry-smiles": "CC(C)[C@H](CO)NC(=O)c1c(N)nn2ccc(-c3cc4c(c(NS(C)(=O)=O)c3)C(=O)N([C@@H](C)C3CC3)C4)nc12",
    "measured-endpoint": "pIC50",
    "assay-value": "> 7.00"
  }
]

Now examine the next entry.
Input line: Reported pIC50, molecule C[C@@H](C1CC1)N1Cc2cc(-c3ccn4nc(N)c(C(=O)NC5CC5)c4n3)cc(S(C)(=O)=O)c2C1=O : ____
Output line: > 7.00

###

molecular target: PI3Kγ (p120γ) (Homo sapiens, UniProt P48736); construct: purchased Promega V1761; assay: Inhibition of PI3K kinase activity (ADP Glo), PI3Kγ; conditions: Table 1, p120γ, read-out: biochemical potency (PI3Kγ IC50)
Below: a set of entries, each annotated with reported IC50.

Recorded results for 3 compounds are shown here.
[
  {
    "entry-smiles": "C[C@@H](C1CC1)N1Cc2cc(-c3ccn4nc(N)c(C(=O)N[C@H]5CC[C@](O)(C(F)(F)F)CC5)c4n3)cc(C(F)(F)F)c2C1=O",
    "assay-value": "< 100 nM"
  },
  {
    "entry-smiles": "C[C@@H](C1CC1)N1Cc2cc(-c3ccn4nc(N)c(C(=O)N[C@H]5CCNC5=O)c4n3)cc(C(F)(F)F)c2C1=O",
    "assay-value": "< 100 nM"
  },
  {
    "entry-smiles": "C[C@@H](C1CC1)N1Cc2cc(-c3ccn4nc(N)c(C(=O)NC5CC5)c4n3)cc(C3CC3)c2C1=O",
    "assay-value": "< 100 nM"
  }
]

Input line: Please state recorded IC50 (tested on PI3Kγ (p120γ) (Homo sapiens, UniProt P48736)) of C[C@@H](C1CC1)N1Cc2cc(-c3ccn4nc(N)c(C(=O)N[C@H]5CC[C@@](C)(O)CC5)c4n3)cc(C(F)(F)F)c2C1=O
Output line: < 100 nM

Input line: Item: C[C@@H](C1CC1)N1Cc2cc(-c3ccn4nc(N)c(C(=O)N[C@@H](CO)C5CC5)c4n3)cc(OC(F)(F)F)c2C1=O
Output line: < 100 nM

Input line: Item: C[C@@H](C1CC1)N1Cc2cc(-c3ccn4nc(N)c(C(=O)NC5CC5)c4n3)cc(S(=O)(=O)CC3CC3)c2C1=O
Output line: < 100 nM

###

biological target: PI3Kγ (Homo sapiens); construct: host or cells: THP-1; experiment: PI3Kγ cellular assay in THP-1 cells (AKT pS473 AlphaLISA); type: cell-based; conditions: Table 2, rhMCP-1 stimulated AKT pS473, read-out: cellular potency (PI3Kγ IC50)
pIC50: −log10 of the molar value.
Below: a set of entries, each annotated with reported pIC50.

Recorded results for 2 molecules are shown here.
[
  {
    "molecule": "Cc1cc(-c2ccn3nc(N)c(C(=O)N[C@@H](C)c4cccnc4)c3n2)cc2c1C(=O)N([C@@H](C)C1CC1)C2 [Example 212]",
    "measured-endpoint": "pIC50",
    "assay-value": "6.00 to 7.00"
  },
  {
    "molecule": "Cc1cc(-c2ccn3nc(N)c(C(=O)N[C@H](C)C4CC4)c3n2)cc2c1C(=O)N([C@@H](C)C1CC1)C2 [Example 278]",
    "measured-endpoint": "pIC50",
    "assay-value": "< 6.00"
  }
]

Input line: Please state recorded pIC50 (tested on PI3Kγ (Homo sapiens)) of Cc1cc(-c2ccn3nc(N)c(C(=O)N[C@H]4C[C@@](C)(O)C4)c3n2)cc2c1C(=O)N([C@@H](C)C1CC1)C2 [Example 196]
Output line: 6.00 to 7.00

Input line: Item: Cc1cc(-c2ccn3nc(N)c(C(=O)N[C@H]4CCC[C@H]4O)c3n2)cc2c1C(=O)N([C@@H](C)C1CC1)C2 [Example 264]
Output line: 6.00 to 7.00

Input line: Item: CC(=O)N1CC(NC(=O)c2c(N)nn3ccc(-c4cc(C)c5c(c4)CN([C@@H](C)C4CC4)C5=O)nc23)C1 [Example 194]
Output line: 6.00 to 7.00

Input line: Item: Cc1cc(-c2ccn3nc(N)c(C(=O)NC4(C)COC4)c3n2)cc2c1C(=O)N(CC(C)(C)O)C2 [Example 318]
Output line: 6.00 to 7.00

Input line: Item: Cc1cc(-c2ccn3nc(N)c(C(=O)N[C@@H]4CC[C@H](O)C4)c3n2)cc2c1C(=O)N([C@@H](C)C1CC1)C2 [Example 197]
Output line: 6.00 to 7.00

Input line: Item: Cc1cc(-c2ccn3nc(N)c(C(=O)N[C@H]4C[C@H](N)C4)c3n2)cc2c1C(=O)N([C@@H](C)C1CC1)C2 [Example 185]
Output line: 6.00 to 7.00

Input line: Item: Cc1cc(-c2ccn3nc(N)c(C(=O)NC4CS(=O)(=O)C4)c3n2)cc2c1C(=O)N([C@@H](C)C1CC1)C2 [Example 241]
Output line: 6.00 to 7.00

Input line: Item: CC[C@H](CO)NC(=O)c1c(N)nn2ccc(-c3cc(C)c4c(c3)CN([C@@H](C)C3CC3)C4=O)nc12 [Example 183]
Output line: 6.00 to 7.00

Input line: Item: Cc1cc(-c2ccn3nc(N)c(C(=O)NC(C)CO)c3n2)cc2c1C(=O)N([C@@H]1CCC[C@H](O)C1)C2 (some centres unmarked) [Example 326]
Output line: < 6.00

Input line: Item: Cc1cc(-c2ccn3nc(N)c(C(=O)N[C@H](C)c4ccncc4)c3n2)cc2c1C(=O)N([C@@H](C)C1CC1)C2 [Example 219]
Output line: 6.00 to 7.00

Input line: Item: Cc1csc(NC(=O)c2c(N)nn3ccc(-c4cc(C)c5c(c4)CN([C@@H](C)C4CC4)C5=O)nc23)n1 [Example 300]
Output line: < 6.00

Input line: Item: Cc1cc(-c2ccn3nc(N)c(C(=O)N[C@H]4CC[C@@H](N)CC4)c3n2)cc2c1C(=O)N([C@@H](C)C1CC1)C2 [Example 273]
Output line: 6.00 to 7.00

###

Below: a set of entries, each annotated with reported pIC50.
Target: PI3Kγ (Homo sapiens, UniProt P48736)
Construct: host or cells: THP-1
Sequence (P48736 whole entry): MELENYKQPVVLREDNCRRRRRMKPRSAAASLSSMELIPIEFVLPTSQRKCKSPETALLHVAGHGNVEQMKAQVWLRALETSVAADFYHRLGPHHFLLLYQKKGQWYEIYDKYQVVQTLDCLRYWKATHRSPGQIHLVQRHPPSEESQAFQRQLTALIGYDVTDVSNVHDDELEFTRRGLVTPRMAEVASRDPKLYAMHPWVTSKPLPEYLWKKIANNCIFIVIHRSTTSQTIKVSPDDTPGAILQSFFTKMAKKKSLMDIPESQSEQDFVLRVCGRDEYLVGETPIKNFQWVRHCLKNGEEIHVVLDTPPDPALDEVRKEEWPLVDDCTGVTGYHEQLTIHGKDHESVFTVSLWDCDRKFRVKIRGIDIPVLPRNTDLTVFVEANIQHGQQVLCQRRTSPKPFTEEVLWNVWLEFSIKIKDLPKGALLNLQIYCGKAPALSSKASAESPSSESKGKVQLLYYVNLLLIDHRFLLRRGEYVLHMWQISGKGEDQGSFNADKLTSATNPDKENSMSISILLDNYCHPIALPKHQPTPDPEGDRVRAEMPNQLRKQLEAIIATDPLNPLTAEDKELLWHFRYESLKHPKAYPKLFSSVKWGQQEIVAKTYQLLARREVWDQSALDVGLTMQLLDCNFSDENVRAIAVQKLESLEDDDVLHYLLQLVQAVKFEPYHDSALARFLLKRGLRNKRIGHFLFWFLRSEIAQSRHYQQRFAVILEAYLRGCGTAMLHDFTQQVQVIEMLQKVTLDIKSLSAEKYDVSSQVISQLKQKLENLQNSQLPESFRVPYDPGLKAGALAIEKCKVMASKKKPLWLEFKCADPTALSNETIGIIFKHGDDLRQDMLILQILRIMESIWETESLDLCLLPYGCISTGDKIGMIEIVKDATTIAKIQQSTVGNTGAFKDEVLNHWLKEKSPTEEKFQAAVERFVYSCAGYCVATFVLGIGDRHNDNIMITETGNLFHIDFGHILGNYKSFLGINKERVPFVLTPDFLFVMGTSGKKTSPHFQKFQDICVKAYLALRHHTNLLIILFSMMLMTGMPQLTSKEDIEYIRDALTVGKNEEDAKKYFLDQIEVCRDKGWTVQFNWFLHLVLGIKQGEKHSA
Experiment: PI3Kγ cellular assay in THP-1 cells (AKT pS473 AlphaLISA)
Type: cell-based
Conditions: Table 2, rhMCP-1 stimulated AKT pS473, read-out: cellular potency (PI3Kγ IC50)
Procedure: Twenty microliters of serum starved THP-1 cells were added to the compound plate in serum free DMEM at a density of 9×10^6 cells per ml. […] PI3Kγ activity was evaluated as a correlate of endogenous AKT phosphorylation levels. Percentage maximum activity in each test well was calculated based on DMSO (100% activity) and positive control treated cell wells (0% activity). The potencies (IC50's) of test compounds were determined using a standard 4-parameter fit non-linear regression fit.
pIC50: −log10 of the molar value.

Recorded results for 3 compounds are shown here.
[
  {
    "compound": "Cc1cc(-c2ccn3nc(N)c(C(=O)NC4CCC4)c3n2)cc2c1C(=O)N([C@@H](C)C1CC1)C2",
    "measured-endpoint": "pIC50",
    "assay-value": "6.00 to 7.00"
  },
  {
    "compound": "Cc1cc(-c2ccn3nc(N)c(C(=O)NC[C@H](C)O)c3n2)cc2c1C(=O)N([C@@H](C)C1CC1)C2",
    "measured-endpoint": "pIC50",
    "assay-value": "6.00 to 7.00"
  },
  {
    "compound": "Cc1cc(-c2ccn3nc(N)c(C(=O)NCC(C)(C)O)c3n2)cc2c1C(=O)N([C@@H](C)C1CC1)C2",
    "measured-endpoint": "pIC50",
    "assay-value": "6.00 to 7.00"
  }
]

Input line: Reported pIC50, compound Cc1cc(-c2ccn3nc(N)c(C(=O)NC4CC4)c3n2)cc2c1C(=O)N([C@H]1CCC[C@H](O)C1)C2 : ____
Output line: 6.00 to 7.00

Input line: Item: Cc1cc(-c2ccn3nc(N)c(C(=O)Nc4cnn(C)c4F)c3n2)cc2c1C(=O)N([C@@H](C)C1CC1)C2
Output line: 6.00 to 7.00

Input line: Item: Cc1cc(-c2ccn3nc(N)c(C(=O)N4CC(O)C4)c3n2)cc2c1C(=O)N(C(C)C1CC1)C2 (centres unmarked)
Output line: 6.00 to 7.00

Input line: Item: Cc1cc(-c2ccn3nc(N)c(C(=O)N[C@H]4CCCNC4)c3n2)cc2c1C(=O)N([C@@H](C)C1CC1)C2
Output line: 6.00 to 7.00

Input line: Item: Cc1cc(-c2ccn3nc(N)c(C(=O)N[C@H]4CCC[C@@H]4O)c3n2)cc2c1C(=O)N([C@@H](C)C1CC1)C2
Output line: 6.00 to 7.00

Input line: Item: Cc1cc(-c2ccn3nc(N)c(C(=O)N[C@@H]4c5ccccc5C[C@H]4O)c3n2)cc2c1C(=O)N([C@@H](C)C1CC1)C2
Output line: 6.00 to 7.00

Input line: Item: Cc1cc(-c2ccn3nc(N)c(C(=O)NC4CCOCC4)c3n2)cc2c1C(=O)N([C@@H](C)C1CC1)C2
Output line: 6.00 to 7.00

Input line: Item: Cc1cc(-c2ccn3nc(N)c(C(=O)N[C@@H](CO)C(C)(C)C)c3n2)cc2c1C(=O)N([C@@H](C)C1CC1)C2
Output line: 6.00 to 7.00

Input line: Item: Cc1cc(-c2ccn3nc(N)c(C(=O)N[C@@H](C)C4CCOCC4)c3n2)cc2c1C(=O)N([C@@H](C)C1CC1)C2
Output line: 6.00 to 7.00

Input line: Item: Cc1cc(-c2ccn3nc(N)c(C(=O)N[C@@H](C)C4CCNCC4)c3n2)cc2c1C(=O)N([C@@H](C)C1CC1)C2
Output line: < 6.00

Input line: Item: Cc1cc(-c2ccn3nc(N)c(C(=O)Nc4ccccc4)c3n2)cc2c1C(=O)N([C@@H](C)C1CC1)C2
Output line: < 6.00
